molecular target: Kir3.1/Kir3.2 (Homo sapiens, UniProt P48051+P48549); assay: Activation of human GIRK1/2 expressed in HEK293 cells co-expressing rat mGlu8 by thallium flux assay
Measured metric: log10 of EC50 (log10 of the value in nM)
Heads up, the numbers here are log10 of EC50 in nM units.

Sample records with log10 of EC50:
{"Structure as smiles": "Cc1cc(NC(=O)Cc2csc(-c3ccccc3)n2)n(C2CCCCC2)n1", "Target or test system": "Kir3.1/Kir3.2 (Homo sapiens, UniProt P48051+P48549)", "Recorded measurement": 3.12}
{"Structure as smiles": "Cc1cc(NC(=O)Cn2cc(-c3ccccc3)cn2)n(C2CCCCC2)n1", "Target or test system": "Kir3.1/Kir3.2 (Homo sapiens, UniProt P48051+P48549)", "Recorded measurement": 1.81}
{"Structure as smiles": "Cc1ccc(-c2nnn(CC(=O)Nc3cc(C)nn3C3CCCCC3)n2)cc1", "Target or test system": "Kir3.1/Kir3.2 (Homo sapiens, UniProt P48051+P48549)", "Recorded measurement": 2.05}
{"Structure as smiles": "Cc1cc(NC(=O)Cn2nncc2-c2ccccc2)n(C2CCCCC2)n1", "Target or test system": "Kir3.1/Kir3.2 (Homo sapiens, UniProt P48051+P48549)", "Recorded measurement": 2.57}
{"Structure as smiles": "Cc1cc(NC(=O)Cn2nnc(-c3cccc(Cl)c3)n2)n(C2CCCCC2)n1", "Target or test system": "Kir3.1/Kir3.2 (Homo sapiens, UniProt P48051+P48549)", "Recorded measurement": 2.48}

**Q:** Value wanted: log10 of EC50 (Kir3.1/Kir3.2 (Homo sapiens, UniProt P48051+P48549)) of entry Cc1cc(NC(=O)Cn2nnc(-c3cc(Cl)cc(Cl)c3)n2)n(C2CCCCC2)n1
**A:** 2.99

**Q:** Same again, this time with Cc1cc(NC(=O)Cn2nnc(-c3ccccc3)n2)n(C2CCCCC2)n1
**A:** 1.98

**Q:** Same again, this time with Cc1cc(NC(=O)Cn2nnc(-c3cccnc3)n2)n(C2CCCCC2)n1
**A:** 3.29

**Q:** Same again, this time with Cc1cc(NC(=O)Cn2nnc(-c3ccccc3)n2)n(CC2CCCCC2)n1
**A:** 2.25

---

Target: Kir3.1/Kir3.4 (Homo sapiens, UniProt P48544+P48549)
Sequence (P48549 whole entry): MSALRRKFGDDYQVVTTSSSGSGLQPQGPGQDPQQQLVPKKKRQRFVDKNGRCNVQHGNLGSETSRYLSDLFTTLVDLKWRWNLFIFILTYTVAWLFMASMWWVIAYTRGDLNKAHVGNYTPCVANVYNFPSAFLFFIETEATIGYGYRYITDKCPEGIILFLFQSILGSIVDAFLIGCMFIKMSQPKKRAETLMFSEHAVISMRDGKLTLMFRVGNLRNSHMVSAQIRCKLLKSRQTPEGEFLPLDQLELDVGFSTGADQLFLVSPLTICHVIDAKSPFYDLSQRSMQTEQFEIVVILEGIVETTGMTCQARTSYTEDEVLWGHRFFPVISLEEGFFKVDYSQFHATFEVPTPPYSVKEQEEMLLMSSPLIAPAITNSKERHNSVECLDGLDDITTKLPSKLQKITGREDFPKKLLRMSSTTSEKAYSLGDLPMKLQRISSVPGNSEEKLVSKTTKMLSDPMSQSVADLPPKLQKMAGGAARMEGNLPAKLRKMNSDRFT
Sequence (P48544 whole entry): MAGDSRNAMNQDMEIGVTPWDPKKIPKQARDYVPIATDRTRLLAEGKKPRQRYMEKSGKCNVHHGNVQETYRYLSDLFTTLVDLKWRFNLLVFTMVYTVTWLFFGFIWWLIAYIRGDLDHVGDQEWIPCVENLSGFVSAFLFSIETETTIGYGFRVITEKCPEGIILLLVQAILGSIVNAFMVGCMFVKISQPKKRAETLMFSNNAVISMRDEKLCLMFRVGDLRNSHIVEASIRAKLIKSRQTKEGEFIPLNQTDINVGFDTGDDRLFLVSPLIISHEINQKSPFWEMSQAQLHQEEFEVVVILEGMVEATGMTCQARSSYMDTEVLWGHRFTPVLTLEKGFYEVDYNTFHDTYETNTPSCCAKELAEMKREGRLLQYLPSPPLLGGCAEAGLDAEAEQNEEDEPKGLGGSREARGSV
Experiment: Activation of human GIRK1/4 expressed in HEK293 cells co-expressing rat mGlu8 by thallium flux assay
Measured metric: EC50 (nM)
Write the value in nM as a bare number.

Sample records with EC50:
{"Structure as smiles": "Cc1cc(NC(=O)Cn2nnc(-c3ccccc3)n2)n(C2CCCCC2)n1", "Unit descriptor": "nM", "EC50": 259}
{"Structure as smiles": "Cc1cc(NC(=O)Cc2coc(-c3ccccc3)n2)n(C2CCCCC2)n1", "Unit descriptor": "nM", "EC50": 3980}
{"Structure as smiles": "Cc1cc(NC(=O)Cn2nnc(-c3ccccc3)n2)n(C2CCC(F)(F)CC2)n1", "Unit descriptor": "nM", "EC50": 383}
{"Structure as smiles": "Cc1cc(NC(=O)Cn2nnc(-c3ccc(C(F)(F)F)cc3)n2)n(C2CCCCC2)n1", "Unit descriptor": "nM", "EC50": 448}
{"Structure as smiles": "Cc1cc(NC(=O)Cc2ncc(-c3ccccc3)o2)n(C2CCCCC2)n1", "Unit descriptor": "nM", "EC50": 1130}

**Q:** Which EC50 is reported for this molecule? Cc1cc(NC(=O)Cn2nnc(-c3ccccc3)n2)n(Cc2ccccc2)n1
**A:** 848

**Q:** Same again, this time with Cc1cc(NC(=O)Cn2nnc(-c3ccccc3)n2)n(C2CCCC2)n1
**A:** 612

**Q:** Same again, this time with Cc1cc(NC(=O)Cn2nnc(-c3cccnc3)n2)n(C2CCCCC2)n1
**A:** 4910

**Q:** Same again, this time with Cc1cc(NC(=O)Cn2nnc(-c3ccccc3F)n2)n(C2CCCCC2)n1
**A:** 447

**Q:** Same again, this time with Cc1cc(NC(=O)Cn2nncc2-c2ccccc2)n(C2CCCCC2)n1
**A:** 1030

**Q:** Same again, this time with Cc1cc(NC(=O)Cn2cc(-c3ccccc3)nn2)n(C2CCCCC2)n1
**A:** 412

**Q:** Same again, this time with Cc1cc(NC(=O)Cn2nnc(-c3ccc(Cl)c(Cl)c3)n2)n(C2CCCCC2)n1
**A:** 2200

---

biological target: Kir3.1/Kir3.4 (Homo sapiens, UniProt P48544+P48549); test: Activation of human GIRK1/4 expressed in HEK293 cells co-expressing rat mGlu8 by thallium flux assay
Measured metric: EC50 (nM)
Write the value in nM as a bare number.

Sample records with EC50:
{"Compound": "Cc1cc(NC(=O)Cn2nnc(-c3ccc(F)c(F)c3)n2)n(C2CCCCC2)n1", "Recorded measurement": 392}
{"Compound": "Cc1cc(NC(=O)Cn2cc(-c3ccccc3)cn2)n(C2CCCCC2)n1", "Recorded measurement": 348}
{"Compound": "Cc1cc(NC(=O)Cn2nnc(-c3cccc(Cl)c3)n2)n(C2CCCCC2)n1", "Recorded measurement": 662}
{"Compound": "Cc1cc(NC(=O)Cc2ccc(-c3ccccc3)cc2)n(C2CCCCC2)n1", "Recorded measurement": 1820}
{"Compound": "Cc1ccc(-c2nnn(CC(=O)Nc3cc(C)nn3C3CCCCC3)n2)cc1", "Recorded measurement": 408}

**Q:** Which EC50 is reported for this compound? Cc1cc(NC(=O)Cn2nnc(-c3ccccc3)n2)n(CC2CCCCC2)n1
**A:** 283

**Q:** Same again, this time with Cc1cc(NC(=O)Cn2nnc(-c3ccc(F)cc3)n2)n(C2CCCCC2)n1
**A:** 634

**Q:** Same again, this time with Cc1cc(NC(=O)Cn2nnc(-c3ccccc3)n2)n(C2CCOCC2)n1
**A:** 2040

**Q:** Same again, this time with Cc1cc(NC(=O)Cn2nnc(-c3cccc(C(F)(F)F)c3)n2)n(C2CCCCC2)n1
**A:** 850

---

Molecular target: Kir3.1/Kir3.2 (Homo sapiens, UniProt P48051+P48549)
Sequence (P48549 whole entry): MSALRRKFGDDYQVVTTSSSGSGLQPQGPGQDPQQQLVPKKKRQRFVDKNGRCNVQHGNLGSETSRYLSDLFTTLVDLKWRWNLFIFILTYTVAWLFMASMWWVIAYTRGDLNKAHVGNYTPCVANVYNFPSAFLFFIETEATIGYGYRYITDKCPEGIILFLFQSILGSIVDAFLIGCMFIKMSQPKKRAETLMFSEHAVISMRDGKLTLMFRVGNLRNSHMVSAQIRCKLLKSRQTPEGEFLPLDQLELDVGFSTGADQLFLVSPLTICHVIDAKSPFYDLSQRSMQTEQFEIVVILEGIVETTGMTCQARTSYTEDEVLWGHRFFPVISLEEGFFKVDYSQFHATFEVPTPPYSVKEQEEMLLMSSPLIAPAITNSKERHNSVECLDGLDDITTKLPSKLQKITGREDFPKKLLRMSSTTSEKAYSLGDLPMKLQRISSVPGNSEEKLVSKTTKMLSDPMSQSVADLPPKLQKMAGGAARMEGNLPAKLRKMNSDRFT
Sequence (P48051 whole entry): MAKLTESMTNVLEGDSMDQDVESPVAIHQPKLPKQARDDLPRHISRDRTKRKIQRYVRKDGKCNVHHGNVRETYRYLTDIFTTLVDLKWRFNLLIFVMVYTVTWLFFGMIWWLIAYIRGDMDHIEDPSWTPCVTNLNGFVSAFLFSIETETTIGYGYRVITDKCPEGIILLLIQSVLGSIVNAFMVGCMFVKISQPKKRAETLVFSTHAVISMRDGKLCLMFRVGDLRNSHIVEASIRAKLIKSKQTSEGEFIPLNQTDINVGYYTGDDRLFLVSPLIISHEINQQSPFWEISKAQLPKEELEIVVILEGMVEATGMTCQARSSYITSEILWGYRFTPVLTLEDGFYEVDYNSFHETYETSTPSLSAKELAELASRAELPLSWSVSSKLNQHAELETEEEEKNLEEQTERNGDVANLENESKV
Test: Activation of human GIRK1/2 expressed in HEK293 cells co-expressing rat mGlu8 by thallium flux assay
Entry class follows EC50: low: < 200 nM; moderate: ≥ 200 nM and < 800 nM; high: ≥ 800 nM

{"Molecule": "Cc1cc(NC(=O)Cc2ccc(-c3ccc(Cl)c(Cl)c3)cc2)n(C2CCCCC2)n1", "Discrete label": "high"}
{"Molecule": "CC1CC1c1cc(NC(=O)Cn2nnc(-c3ccccc3)n2)n(C2CCCCC2)n1 (stereo unspecified)", "Discrete label": "high"}
{"Molecule": "Cc1cccc(-c2nnn(CC(=O)Nc3cc(C)nn3C3CCCCC3)n2)c1", "Discrete label": "low"}
{"Molecule": "Cc1cc(NC(=O)Cn2nnc(-c3ccccc3)n2)n(C(C)C)n1", "Discrete label": "moderate"}
{"Molecule": "COc1ccc(-c2nnn(CC(=O)Nc3cc(C)nn3C3CCCCC3)n2)cc1", "Discrete label": "low"}

**Q:** Which bin, given its EC50, does Cc1cc(NC(=O)Cn2nnc(-c3ccccc3)n2)n(C2CCS(=O)(=O)C2)n1 (stereo unspecified) occupy?
**A:** high

**Q:** Same again, this time with CC1(c2cc(NC(=O)Cn3nnc(-c4ccccc4)n3)n(C3CCCCC3)n2)CC1
**A:** high

Source of measurements: ChEMBL document CHEMBL4422673
